Documented growth inhibition across a set of molecules
- experiment: NCI Yeast Anticancer Drug Screen. Data for the mec2-1 strain (AID 157)
- cond: S. cerevisiae mec2-1 strain, at 5.0 µM (retest, dose inferred, filed as 0.5), stronger effect = higher value
The panel holds about 79,000 compounds, 15% with a hit somewhere; the sample as a whole holds those more often.
property: growth inhibition (%)

- molecule: "CC(C(O)Cc1ccccc1)N(C)N=Nc1ccc([N+](=O)[O-])cc1 (stereo not drawn)"
  property: "growth inhibition"
  data-value: 18
- molecule: "CN(C)C(N)=NC#N"
  property: "growth inhibition"
  data-value: 22
- molecule: "COc1ccc2c(c1)[n+]([O-])c(-c1ccc(Cl)c(Cl)c1)c(N)[n+]2[O-]"
  property: "growth inhibition"
  data-value: 26
- molecule: "O=C1c2ccc(Cl)cc2C(=O)c2cc(Cl)ccc21"
  property: "growth inhibition"
  data-value: 11
- molecule: "O=C(c1ccccc1)C(Cl)c1ccccc1 (stereo not drawn)"
  property: "growth inhibition"
  data-value: -12
- molecule: "CCOC(=O)N1c2ccc3ccccc3c2C=CC1C#N (stereo not drawn)"
  property: "growth inhibition"
  data-value: -12
- molecule: "CC(NNC(=S)NCc1ccccc1)c1cc2ccccc2cn1 (stereo not drawn)"
  property: "growth inhibition"
  data-value: 9
- molecule: "CN(C)CC/C(=N\\Nc1ccc([N+](=O)[O-])cc1)c1ccccc1"
  property: "growth inhibition"
  data-value: 8
- molecule: "O=C(C(=Cn1c(=S)[nH]c2ccc([N+](=O)[O-])cc21)C(=O)c1ccccc1)c1ccccc1"
  property: "growth inhibition"
  data-value: -14
- molecule: "Nc1ccc(O)c2c1C(=O)c1ccccc1C2O (stereo not drawn)"
  property: "growth inhibition"
  data-value: 4
- molecule: "C/C(=C/C(=O)/C=C/c1ccccc1)c1c(C)[nH]c2ccccc12"
  property: "growth inhibition"
  data-value: -17
- molecule: "OC(COc1ccc(Cl)cc1)COc1ccc(Cl)cc1"
  property: "growth inhibition"
  data-value: -3
- molecule: "CN(NC(=O)c1cccs1)C1=NCCCN1"
  property: "growth inhibition"
  data-value: 8
- molecule: "CCCCN1C(=O)C[C@H]2[C@@H]3CCc4cc(OCCN5CCCC5)ccc4[C@H]3CC[C@]2(C)C1=O"
  property: "growth inhibition"
  data-value: 30
- molecule: "Nc1ccccc1/C=C/c1c[nH]c2ccccc12"
  property: "growth inhibition"
  data-value: 4
- molecule: "O=c1c(Cl)nsnc1Cl"
  property: "growth inhibition"
  data-value: 100
- molecule: "Clc1ccc(C2=C(c3ccccc3)C(c3ccc(Cl)cc3)N3C(=N[C@H]4CCCC[C@@H]43)N2)cc1 (stereo partly drawn)"
  property: "growth inhibition"
  data-value: 9
- molecule: "O=[N+]([O-])c1ccccc1SCc1ccccc1"
  property: "growth inhibition"
  data-value: -18
- molecule: "CCCCCCCCCCCC[N+]1(C)CCCC1c1cccnc1 (stereo not drawn)"
  property: "growth inhibition"
  data-value: 13
- molecule: "O=C1CSC(=S)N1c1cccc(Cl)c1"
  property: "growth inhibition"
  data-value: 15
- molecule: "O=C1CCC/C1=C\\c1ccccc1"
  property: "growth inhibition"
  data-value: 7
- molecule: "CCC(Cl)COP(=O)(OC(c1ccc(Cl)c(Cl)c1)P(=O)(OCC(Cl)CC)OCC(Cl)CC)C(CC)CCl (stereo not drawn)"
  property: "growth inhibition"
  data-value: -81
- molecule: "CCCCC(CC)CN1C(=O)C2C3C=CC(C3)C2C1=O (stereo not drawn)"
  property: "growth inhibition"
  data-value: -9
- molecule: "O=[N+]([O-])c1c(O)cccc1O"
  property: "growth inhibition"
  data-value: 17
- molecule: "C=CC(=O)Nc1ccccc1CC(c1c[nH]c2ccccc12)c1c[nH]c2ccccc12"
  property: "growth inhibition"
  data-value: 26
- molecule: "O=C1/C(=C/c2cccc(Br)c2)CCc2ccccc21"
  property: "growth inhibition"
  data-value: 8
- molecule: "Cc1ccccc1NC(=O)C1C(=O)N(c2ccccc2C)C(=O)/C1=N/O (stereo not drawn)"
  property: "growth inhibition"
  data-value: 3
- molecule: "COc1ccc2c(c1)CCC(N1CCCC(O)C1)C2 (stereo not drawn)"
  property: "growth inhibition"
  data-value: 12
- molecule: "CCOc1ccc2nc([NH-])sc2c1.CCOc1ccc2nc([NH-])sc2c1.CCOc1ccc2nc([NH-])sc2c1.CCOc1ccc2nc([NH-])sc2c1.[Cl][Rh][Cl]"
  property: "growth inhibition"
  data-value: 0
- molecule: "O=[N+]([O-])c1c(Br)ncn1Cc1ccccc1"
  property: "growth inhibition"
  data-value: 22
- molecule: "CC(C)(c1ccc(OC#N)cc1)c1ccc(OC#N)cc1"
  property: "growth inhibition"
  data-value: -23
- molecule: "CCCCC(O)CCCC"
  property: "growth inhibition"
  data-value: 14
- molecule: "COc1cc(CSc2ccc(O)cc2)cc(OC)c1OC"
  property: "growth inhibition"
  data-value: -18
- molecule: "O=C1OC2(CCN(Cc3ccccc3)CC2)C(=O)N1c1cccc(Cl)c1"
  property: "growth inhibition"
  data-value: -8
- molecule: "Cc1cc(O)ccc1C1(c2ccc(F)cc2)OC(=O)c2ccccc21 (stereo not drawn)"
  property: "growth inhibition"
  data-value: 32
- molecule: "CCCCCCCCCC1OCC(O)CO1 (stereo not drawn) (tested in a mixture with another compound)"
  property: "growth inhibition"
  data-value: 9
- molecule: "COc1ccc(-c2noc(=O)c3ccccc23)cc1"
  property: "growth inhibition"
  data-value: 5
- molecule: "CC1CC2(C)ON=C(c3ccccc3)N2c2ccccc2S1 (stereo not drawn)"
  property: "growth inhibition"
  data-value: -4
- molecule: "O=S(=O)(c1ccc(NC(=S)NCc2ccncc2)cc1)N1CCCCC1"
  property: "growth inhibition"
  data-value: -11
- molecule: "CCc1[nH]c2ccccc2c1N1C(=O)CC2(CCN(Cc3ccccc3)CC2)CC1=O"
  property: "growth inhibition"
  data-value: 1
- molecule: "CCCCCCCCN(CCCCCCCC)Cc1ccc(Br)cc1"
  property: "growth inhibition"
  data-value: 96
- molecule: "CC(=O)c1cccc(NC(=O)C(=O)NNc2n[nH]c(=S)n2N)c1"
  property: "growth inhibition"
  data-value: -20
- molecule: "O=C1C=C(Br)C(=O)C12CCc1ccccc12 (stereo not drawn)"
  property: "growth inhibition"
  data-value: 100
